Overview of recorded relative viability for various compounds
test system: ABC-1; experiment: relative viability (nuclei count vs DMSO), 5 days (fraction); higher = more cells survive; conditions: first compound 0.003162 µM
Quantity: relative viability

- Compound: "Cc1cn(-c2cc(NC(=O)c3ccc(C)c(Nc4nccc(-c5cccnc5)n4)c3)cc(C(F)(F)F)c2)cn1 [Nilotinib] + O=C(CCCCCCC(=O)Nc1ccccc1)NO [Vorinostat] (partner 1 µM)"
  System: "ABC-1"
  Quantity: "relative viability"
  Value Observed: 1.03
- Compound: "Cc1cn(-c2cc(NC(=O)c3ccc(C)c(Nc4nccc(-c5cccnc5)n4)c3)cc(C(F)(F)F)c2)cn1 [Nilotinib] + C[C@@H](Oc1cc(-c2cnn(C3CCNCC3)c2)cnc1N)c1c(Cl)ccc(F)c1Cl [Crizotinib] (partner 1 µM)"
  System: "ABC-1"
  Quantity: "relative viability"
  Value Observed: 1.03
- Compound: "Cc1cn(-c2cc(NC(=O)c3ccc(C)c(Nc4nccc(-c5cccnc5)n4)c3)cc(C(F)(F)F)c2)cn1 [Nilotinib] + Nc1ncn([C@H]2C[C@H](O)[C@@H](CO)O2)c(=O)n1 [Decitabine] (partner 2 µM)"
  System: "ABC-1"
  Quantity: "relative viability"
  Value Observed: 0.946
- Compound: "Cc1cn(-c2cc(NC(=O)c3ccc(C)c(Nc4nccc(-c5cccnc5)n4)c3)cc(C(F)(F)F)c2)cn1 [Nilotinib] + NC(=O)Nc1cc(-c2cccc(F)c2)sc1C(=O)N[C@H]1CCCNC1 [AZD7762] (partner 0.2 µM)"
  System: "ABC-1"
  Quantity: "relative viability"
  Value Observed: 0.73
- Compound: "Cc1cn(-c2cc(NC(=O)c3ccc(C)c(Nc4nccc(-c5cccnc5)n4)c3)cc(C(F)(F)F)c2)cn1 [Nilotinib] + CS(=O)(=O)N1CCN(Cc2cc3nc(-c4cccc5[nH]ncc45)nc(N4CCOCC4)c3s2)CC1 [Pictilisib] (partner 1 µM)"
  System: "ABC-1"
  Quantity: "relative viability"
  Value Observed: 0.697

* * *

system: NCI-H2085; test: relative viability (nuclei count vs DMSO), 5 days (fraction); higher = more cells survive; conditions: first compound 0.8 µM

- Compound: "Nc1cccc2c1CN(C1CCC(=O)NC1=O)C2=O (centres undefined) [Lenalidomide] + CC1(C)CCC(c2ccc(Cl)cc2)=C(CN2CCN(c3ccc(C(=O)NS(=O)(=O)c4ccc(N[C@H](CCN5CCOCC5)CSc5ccccc5)c(S(=O)(=O)C(F)(F)F)c4)cc3)CC2)C1 [Navitoclax] (partner 0.5 µM)"
  relative viability: 1.16
- Compound: "Nc1cccc2c1CN(C1CCC(=O)NC1=O)C2=O (centres undefined) [Lenalidomide] + Cc1nc(NC(=O)N2CCC[C@H]2C(N)=O)sc1-c1ccnc(C(C)(C)C(F)(F)F)c1 [Alpelisib] (partner 2 µM)"
  relative viability: 0.997
- Compound: "Nc1cccc2c1CN(C1CCC(=O)NC1=O)C2=O (centres undefined) [Lenalidomide] + O=C(c1cc(Cc2n[nH]c(=O)c3ccccc23)ccc1F)N1CCN(C(=O)C2CC2)CC1 [Olaparib] (partner 8 µM)"
  relative viability: 0.796
- Compound: "Nc1cccc2c1CN(C1CCC(=O)NC1=O)C2=O (centres undefined) [Lenalidomide] + CS(=O)(=O)CCNCc1ccc(-c2ccc3ncnc(Nc4ccc(OCc5cccc(F)c5)c(Cl)c4)c3c2)o1 [Lapatinib] (partner 2 µM)"
  relative viability: 0.538

* * *

Overview of recorded relative viability for various compounds
system: NCI-H1563; assay: relative viability (nuclei count vs DMSO), 5 days (fraction); higher = more cells survive; settings: first compound 8 µM
Quantity: relative viability

- Compound: "Nc1cccc2c1CN(C1CCC(=O)NC1=O)C2=O (centres undefined) [Lenalidomide] + C[C@]1(O)C[C@@H](c2nc(-c3ccc4ccc(-c5ccccc5)nc4c3)c3c(N)nccn32)C1 [Linsitinib] (partner 1 µM)"
  Value Observed: 1.01
- Compound: "Nc1cccc2c1CN(C1CCC(=O)NC1=O)C2=O (centres undefined) [Lenalidomide] + Cc1nc(NC(=O)N2CCC[C@H]2C(N)=O)sc1-c1ccnc(C(C)(C)C(F)(F)F)c1 [Alpelisib] (partner 2 µM)"
  Value Observed: 0.87
- Compound: "Nc1cccc2c1CN(C1CCC(=O)NC1=O)C2=O (centres undefined) [Lenalidomide] + CS(=O)(=O)N1CCN(Cc2cc3nc(-c4cccc5[nH]ncc45)nc(N4CCOCC4)c3s2)CC1 [Pictilisib] (partner 1 µM)"
  Value Observed: 0.638
- Compound: "Nc1cccc2c1CN(C1CCC(=O)NC1=O)C2=O (centres undefined) [Lenalidomide] + CCNC(=O)c1noc(-c2cc(C(C)C)c(O)cc2O)c1-c1ccc(CN2CCOCC2)cc1 [Luminespib] (partner 0.01 µM)"
  Value Observed: 0.581

* * *

Overview of recorded relative viability for various compounds
tested on: EKVX; assay: relative viability (nuclei count vs DMSO), 5 days (fraction); higher = more cells survive; conditions: first compound 0.2 µM

- Compound: "CN1CCN(CCOc2cc(OC3CCOCC3)c3c(Nc4c(Cl)ccc5c4OCO5)ncnc3c2)CC1 [Saracatinib] + C[C@]1(O)C[C@@H](c2nc(-c3ccc4ccc(-c5ccccc5)nc4c3)c3c(N)nccn32)C1 [Linsitinib] (partner 1 µM)"
  relative viability: 0.861
- Compound: "CN1CCN(CCOc2cc(OC3CCOCC3)c3c(Nc4c(Cl)ccc5c4OCO5)ncnc3c2)CC1 [Saracatinib] + C[C@@H](Oc1cc(-c2cnn(C3CCNCC3)c2)cnc1N)c1c(Cl)ccc(F)c1Cl [Crizotinib] (partner 1 µM)"
  relative viability: 0.865
- Compound: "CCNC(=O)c1noc(-c2cc(C(C)C)c(O)cc2O)c1-c1ccc(CN2CCOCC2)cc1 [Luminespib] + CC(C)C[C@H](NC(=O)[C@H](Cc1ccccc1)NC(=O)c1cnccn1)B(O)O [Bortezomib] (partner 0.002 µM)"
  relative viability: 0.0943
- Compound: "Cc1csc(=NC2CCCCC2)n1/N=C/c1ccc(O)c(O)c1O [MIM1] + N=C(N)NC(=N)NCCc1ccccc1 [Phenformin] (partner 250 µM)"
  relative viability: 0.253
- Compound: "Cc1csc(=NC2CCCCC2)n1/N=C/c1ccc(O)c(O)c1O [MIM1] + Cc1cc(Nc2cc(N3CCN(C)CC3)nc(Sc3ccc(NC(=O)C4CC4)cc3)n2)n[nH]1 [Tozasertib] (partner 0.1 µM)"
  relative viability: 0.474

* * *

Overview of recorded relative viability for various compounds
system: NCI-H460; assay: relative viability (nuclei count vs DMSO), 5 days (fraction); higher = more cells survive; conditions: first compound 0.01 µM
Quantity: relative viability

- Compound: "Cc1cn(-c2cc(NC(=O)c3ccc(C)c(Nc4nccc(-c5cccnc5)n4)c3)cc(C(F)(F)F)c2)cn1 [Nilotinib] + C[C@]1(O)C[C@@H](c2nc(-c3ccc4ccc(-c5ccccc5)nc4c3)c3c(N)nccn32)C1 [Linsitinib] (partner 1 µM)"
  System: "NCI-H460"
  Value Observed: 1.75
- Compound: "Cc1cn(-c2cc(NC(=O)c3ccc(C)c(Nc4nccc(-c5cccnc5)n4)c3)cc(C(F)(F)F)c2)cn1 [Nilotinib] + CC(=O)c1c(C)c2cnc(Nc3ccc(N4CCNCC4)cn3)nc2n(C2CCCC2)c1=O [Palbociclib] (partner 0.5 µM)"
  System: "NCI-H460"
  Value Observed: 0.144

* * *

test system: NCI-H3122; assay: relative viability (nuclei count vs DMSO), 5 days (fraction); higher = more cells survive; conditions: first compound 0.2 µM
The threshold is 0.2. Values of relative viability beneath it are tagged TRUE; values meeting or exceeding it are tagged FALSE.

- Compound: "Cc1csc(=NC2CCCCC2)n1/N=C/c1ccc(O)c(O)c1O [MIM1] + CC(C)C[C@H](NC(=O)[C@H](Cc1ccccc1)NC(=O)c1cnccn1)B(O)O [Bortezomib] (partner 0.002 µM)"
  Category Label: "FALSE"
- Compound: "CCNC(=O)c1noc(-c2cc(C(C)C)c(O)cc2O)c1-c1ccc(CN2CCOCC2)cc1 [Luminespib] + C[C@]1(O)C[C@@H](c2nc(-c3ccc4ccc(-c5ccccc5)nc4c3)c3c(N)nccn32)C1 [Linsitinib] (partner 1 µM)"
  Category Label: "TRUE"
- Compound: "CN1CCN(CCOc2cc(OC3CCOCC3)c3c(Nc4c(Cl)ccc5c4OCO5)ncnc3c2)CC1 [Saracatinib] + Cc1nc(Nc2ncc(C(=O)Nc3c(C)cccc3Cl)s2)cc(N2CCN(CCO)CC2)n1 [Dasatinib] (partner 0.075 µM)"
  Category Label: "FALSE"
- Compound: "Cc1csc(=NC2CCCCC2)n1/N=C/c1ccc(O)c(O)c1O [MIM1] + CC(=O)c1c(C)c2cnc(Nc3ccc(N4CCNCC4)cn3)nc2n(C2CCCC2)c1=O [Palbociclib] (partner 0.5 µM)"
  Category Label: "TRUE"
- Compound: "CCNC(=O)c1noc(-c2cc(C(C)C)c(O)cc2O)c1-c1ccc(CN2CCOCC2)cc1 [Luminespib] + CS(=O)(=O)N1CCN(Cc2cc3nc(-c4cccc5[nH]ncc45)nc(N4CCOCC4)c3s2)CC1 [Pictilisib] (partner 1 µM)"
  Category Label: "TRUE"
- Compound: "Cc1csc(=NC2CCCCC2)n1/N=C/c1ccc(O)c(O)c1O [MIM1] + Cc1cc(Nc2cc(N3CCN(C)CC3)nc(Sc3ccc(NC(=O)C4CC4)cc3)n2)n[nH]1 [Tozasertib] (partner 0.1 µM)"
  Category Label: "FALSE"
- Compound: "Cc1csc(=NC2CCCCC2)n1/N=C/c1ccc(O)c(O)c1O [MIM1] + COc1cc2c(Oc3ccc(NC(=O)C4(C(=O)Nc5ccc(F)cc5)CC4)cc3F)ccnc2cc1OCCCN1CCOCC1 [Foretinib] (partner 0.25 µM)"
  Category Label: "FALSE"
